# HL-60 (TB): GI50 values follow

Quick request: GI50 for each listed item, please.
1. CCc1c[nH]c(/C=N/NC(=O)c2[nH]c3ccc(Br)cc3c2-c2ccccc2)c1
2. O=C(N/N=C/c1cc(Br)c[nH]1)c1[nH]c2ccc(Br)cc2c1-c1ccccc1
3. O=C(N/N=C/c1cc(Br)c(Br)[nH]1)c1[nH]c2ccc(Br)cc2c1-c1ccccc1
4. Cc1[nH]c(/C=N/NC(=O)c2[nH]c3ccc(Br)cc3c2-c2ccccc2)c(C)c1[N+](=O)[O-]
5. CCOC(=O)c1c[nH]c(/C=N/NC(=O)c2[nH]c3ccc(Br)cc3c2-c2ccccc2)c1
6. O=C(N/N=C/c1cc([N+](=O)[O-])c[nH]1)c1[nH]c2ccc(Br)cc2c1-c1ccccc1
7. Cc1cc(C)c(/C=N/NC(=O)c2[nH]c3ccc(Br)cc3c2-c2ccccc2)[nH]1
8. CCOC(=O)c1ccc(/C=N/NC(=O)c2[nH]c3ccc(Br)cc3c2-c2ccccc2)[nH]1

1. 237 nM
2. 327 nM
3. 2380 nM
4. 2310 nM
5. 1500 nM
6. 633 nM
7. 2400 nM
8. 1840 nM

Quick request: GI50 for each listed item, please.
1. O=C(N/N=C/c1ccc([N+](=O)[O-])[nH]1)c1[nH]c2ccc(Br)cc2c1-c1ccccc1
2. O=C(N/N=C/c1ccc(C(=O)N2CCOCC2)[nH]1)c1[nH]c2ccc(Br)cc2c1-c1ccccc1

374 nM
1840 nM

----------
Please provide measured CC50 for the entries that follow.
Test system: 786-0
Assay: NCI60 five-dose screen
Format: cell-based
Settings: Homo sapiens; 786-0, renal cancer; read-out: LC50 (the source's name)

Previously resolved entries follow.
INSERT INTO measurements (inputsmiles, measuredvalue) VALUES
  ('CCOC(=O)c1c[nH]c(/C=N/NC(=O)c2[nH]c3ccc(Br)cc3c2-c2ccccc2)c1', '44.7 µM'),
  ('CCOC(=O)c1ccc(/C=N/NC(=O)c2[nH]c3ccc(Br)cc3c2-c2ccccc2)[nH]1', '> 100 µM'),
  ('Cc1[nH]c(/C=N/NC(=O)c2[nH]c3ccc(Br)cc3c2-c2ccccc2)c(C)c1[N+](=O)[O-]', '17 µM');

Quick request: CC50 for each listed item, please.
1. O=C(N/N=C/c1cc(Br)c(Br)[nH]1)c1[nH]c2ccc(Br)cc2c1-c1ccccc1
2. O=C(N/N=C/c1cc[nH]c1)c1[nH]c2ccc(Br)cc2c1-c1ccccc1
3. O=C(N/N=C/c1cc(Br)c[nH]1)c1[nH]c2ccc(Br)cc2c1-c1ccccc1
4. O=C(N/N=C/c1cc(Cl)c[nH]1)c1[nH]c2ccc(Br)cc2c1-c1ccccc1
5. CCc1cc[nH]c1/C=N/NC(=O)c1[nH]c2ccc(Br)cc2c1-c1ccccc1

["64.1 µM", "77.2 µM", "55.9 µM", "39.8 µM", "44.3 µM"]

----------
System: ACHN
measurementLabel: GI50
Answer format: number, then unit.

Previously resolved entries follow.
INSERT INTO measurements (inputsmiles, measuredvalue) VALUES
  ('Cc1cc(C)c(/C=N/NC(=O)c2[nH]c3ccc(Br)cc3c2-c2ccccc2)[nH]1', '3030 nM'),
  ('CCc1c[nH]c(/C=N/NC(=O)c2[nH]c3ccc(Br)cc3c2-c2ccccc2)c1', '628 nM'),
  ('CCOC(=O)c1cc(/C=N/NC(=O)c2[nH]c3ccc(Br)cc3c2-c2ccccc2)c[nH]1', '4870 nM');

Sample CCc1ccc(/C=N/NC(=O)c2[nH]c3ccc(Br)cc3c2-c2ccccc2)[nH]1 — what was its GI50?
861 nM

----------
Test system: HCT-15
Test: NCI60 five-dose screen
Type: cell-based
Details: Homo sapiens; HCT-15, colon cancer; read-out: LC50 (the source's name)
measurementLabel: CC50 (µM)
Give bare numbers, in µM.

INSERT INTO results (inputsmiles, unitstring, measuredvalue) VALUES
  ('O=C(N/N=C/c1ccc([N+](=O)[O-])[nH]1)c1[nH]c2ccc(Br)cc2c1-c1ccccc1', 'µM', 35.7),
  ('CCOC(=O)c1cc(/C=N/NC(=O)c2[nH]c3ccc(Br)cc3c2-c2ccccc2)c[nH]1', 'µM', 35.7),
  ('O=C(N/N=C/c1cc[nH]c1)c1[nH]c2ccc(Br)cc2c1-c1ccccc1', 'µM', 34),
  ('O=C(N/N=C/c1[nH]ccc1Cl)c1[nH]c2ccc(Br)cc2c1-c1ccccc1', 'µM', 34.3);

Pending compound:
Sample Cc1[nH]c(/C=N/NC(=O)c2[nH]c3ccc(Br)cc3c2-c2ccccc2)c(C)c1[N+](=O)[O-] — what was its CC50?
26.4

----------
# RXF 393: log10 GI50 values follow
// do not treat as linear: log10 of GI50, unit nM

INSERT INTO measurements (inputsmiles, testsystem, measurementlabel, measuredvalue) VALUES
  ('O=C(N/N=C/c1cc[nH]c1)c1[nH]c2ccc(Br)cc2c1-c1ccccc1', 'RXF 393', 'log10 GI50', 3.25),
  ('Cc1cc(C)c(/C=N/NC(=O)c2[nH]c3ccc(Br)cc3c2-c2ccccc2)[nH]1', 'RXF 393', 'log10 GI50', 3.35),
  ('CCc1cc[nH]c1/C=N/NC(=O)c1[nH]c2ccc(Br)cc2c1-c1ccccc1', 'RXF 393', 'log10 GI50', 3.08);

Quick request: log10 GI50 for each listed item, please.
1. CCOC(=O)c1c[nH]c(/C=N/NC(=O)c2[nH]c3ccc(Br)cc3c2-c2ccccc2)c1
2. O=C(N/N=C/c1cc(Br)c[nH]1)c1[nH]c2ccc(Br)cc2c1-c1ccccc1
3. O=C(N/N=C/c1cc(Br)c(Br)[nH]1)c1[nH]c2ccc(Br)cc2c1-c1ccccc1
4. O=C(N/N=C/c1cc(Cl)c[nH]1)c1[nH]c2ccc(Br)cc2c1-c1ccccc1

3.13
2.70
3.19
2.34

Sample Cc1[nH]c(/C=N/NC(=O)c2[nH]c3ccc(Br)cc3c2-c2ccccc2)c(C)c1[N+](=O)[O-] — what was its log10 GI50?
3.23

----------
Test system: EKVX
Experiment: NCI60 five-dose screen
Type: cell-based
Conditions: Homo sapiens, NSC lung cancer, read-out: LC50 (the source's name)
measurementLabel: CC50 (µM)
Give bare numbers, in µM.

Previously resolved entries follow.
INSERT INTO assay_data (inputsmiles, measuredvalue) VALUES
  ('CCOC(=O)c1cc(/C=N/NC(=O)c2[nH]c3ccc(Br)cc3c2-c2ccccc2)c[nH]1', 60.7),
  ('O=C(N/N=C/c1ccc[nH]1)c1[nH]c2ccc(Br)cc2c1-c1ccccc1', 33.4),
  ('Cc1cc(C)c(/C=N/NC(=O)c2[nH]c3ccc(Br)cc3c2-c2ccccc2)[nH]1', 35.4),
  ('CCc1ccc(/C=N/NC(=O)c2[nH]c3ccc(Br)cc3c2-c2ccccc2)[nH]1', 43),
  ('O=C(N/N=C/c1cc(Br)c[nH]1)c1[nH]c2ccc(Br)cc2c1-c1ccccc1', 34.3),
  ('O=C(N/N=C/c1ccc([N+](=O)[O-])[nH]1)c1[nH]c2ccc(Br)cc2c1-c1ccccc1', 45.7),
  ('CCOC(=O)c1c[nH]c(/C=N/NC(=O)c2[nH]c3ccc(Br)cc3c2-c2ccccc2)c1', 43.1),
  ('CCc1c[nH]c(/C=N/NC(=O)c2[nH]c3ccc(Br)cc3c2-c2ccccc2)c1', 35.6),
  ('Cc1[nH]c(/C=N/NC(=O)c2[nH]c3ccc(Br)cc3c2-c2ccccc2)c(C)c1[N+](=O)[O-]', 34.9),
  ('O=C(N/N=C/c1[nH]ccc1Cl)c1[nH]c2ccc(Br)cc2c1-c1ccccc1', 38.1);

Quick request: CC50 for each listed item, please.
1. O=C(N/N=C/c1cc[nH]c1)c1[nH]c2ccc(Br)cc2c1-c1ccccc1
2. CCc1cc[nH]c1/C=N/NC(=O)c1[nH]c2ccc(Br)cc2c1-c1ccccc1
3. O=C(N/N=C/c1cc(Br)c(Br)[nH]1)c1[nH]c2ccc(Br)cc2c1-c1ccccc1

[41.7, 37.7, 44.8]

----------
Tested on: LOX IMVI
Experiment: NCI60 five-dose screen
Type: cell-based
Conditions: Homo sapiens, melanoma, read-out: LC50 (the source's name)
measurementLabel: CC50 (µM)
Answers are plain numbers, in µM.

Previously resolved entries follow.
INSERT INTO measurements (inputsmiles, measurementlabel, measuredvalue) VALUES
  ('O=C(N/N=C/c1cc(Cl)c[nH]1)c1[nH]c2ccc(Br)cc2c1-c1ccccc1', 'CC50', 16.7),
  ('CCOC(=O)c1cc(/C=N/NC(=O)c2[nH]c3ccc(Br)cc3c2-c2ccccc2)c[nH]1', 'CC50', 41.1);

Sample CCOC(=O)c1c[nH]c(/C=N/NC(=O)c2[nH]c3ccc(Br)cc3c2-c2ccccc2)c1 — what was its CC50?
40.9
